# Test system: velvetleaf (Abutilon theophrasti)
# Procedure Summary: Example 24, Procedure II: Herbicide No. 1 + co-herbicides Nos. 4, 6, 7, 12 with Antidote Nos. 15 and 17-21
# Type: in vivo
# Reported Conditions: Herb. No. 1 0.28 Kg/ha + Co-Herb. No. 12 0.28 Kg/ha + antidote 2.24 Kg/ha
Measured Attribute: % Inhibition VL (%)
One number for each entry, in %.

>>> observed_result("CC1(C)OC(c2ccco2)CN1C(=O)C(Cl)Cl (stereo not drawn) [compound 15]")
98
>>> observed_result("O=C(O)COC(c1ccccc1)c1ccccc1 [compound 18]")
95
>>> observed_result("CC1COc2ccccc2N1C(=O)C(Cl)Cl (stereo not drawn) [compound 17]")
98
>>> observed_result("COC(=O)COC(c1ccccc1)c1ccccc1 [compound 20]")
98
>>> observed_result("CCSC(=O)COC(c1ccccc1)c1ccccc1 [compound 21]")
98

[Q] Item under review: O=C(O)COC(c1ccccc1)c1ccccc1 [compound 19] . Reported % Inhibition VL?
[A] 95

---

# Tested on: corn
# Procedure Summary: Example 22: retest of Example 21 at reduced greenhouse temperatures
# Format: in vivo
# Reported Conditions: Table 22; Herbicide No.1 1.12 Kg/ha + SUTAN + 8.96 Kg/ha + antidote 2.24 Kg/ha
Would you mind telling me the reported % Injury Corn of each entry?
Answers are plain numbers, in %.

Example compounds with recorded % Injury Corn:
>>> observed_result("CC1(C(Cl)Cl)OCCO1")
75
>>> observed_result("CC1(C)OC(c2ccco2)CN1C(=O)C(Cl)Cl (centres unmarked)")
60
>>> observed_result("C=CCN(CC=C)C(=O)C(Cl)Cl")
50
>>> observed_result("O=C1OC(=O)c2cccc3cccc1c23")
40

[Q] Which % Injury Corn value belongs to O=C(C(Cl)Cl)N1CCOC12CCCCC2 ?
[A] 65

---

Field: % Inhibition VL. Provide a value for each of the compounds that follow.
# Test system: velvetleaf (Abutilon theophrasti)
# Procedure Summary: Example 24, Procedure II: Herbicide No. 1 + co-herbicides Nos. 4, 6, 7, 12 with Antidote Nos. 15 and 17-21
# Format: in vivo
# Reported Conditions: Herb. No. 1 0.07 Kg/ha + Co-Herb. No. 6 0.14 Kg/ha + antidote 2.24 Kg/ha
Answers are plain numbers, in %.

Solved cases (5 shown):
>>> observed_result("CC1(C)OC(c2ccco2)CN1C(=O)C(Cl)Cl (stereo not drawn)")
95
>>> observed_result("CCSC(=O)COC(c1ccccc1)c1ccccc1")
85
>>> observed_result("O=C(O)COC(c1ccccc1)c1ccccc1 [compound 19]")
90
>>> observed_result("CC1COc2ccccc2N1C(=O)C(Cl)Cl (stereo not drawn)")
90
>>> observed_result("COC(=O)COC(c1ccccc1)c1ccccc1")
95

Okay, now this compound:
[Q] Notebook entry, velvetleaf (Abutilon theophrasti) assay: % Inhibition VL of O=C(O)COC(c1ccccc1)c1ccccc1 [compound 18] = ?
[A] 90

---

Assign % Inhibition GFT to each entry below.
# Tested on: Giant foxtail (Setaria fabergi)
# Procedure Summary: Example 23, Procedure II: Antidote Nos. 15 and 17-21 against Herbicide No. 1, 13 days after application
# Format: in vivo
# Reported Conditions: Table 23A, Herb. No. 1 0.28 Kg/Ha + antidote 2.24 Kg/ha
Numbers only, in %.

>>> observed_result("O=C(O)COC(c1ccccc1)c1ccccc1 [compound 18]")
30
>>> observed_result("CCSC(=O)COC(c1ccccc1)c1ccccc1 [compound 21]")
20
>>> observed_result("O=C(O)COC(c1ccccc1)c1ccccc1 [compound 19]")
30
>>> observed_result("CC1(C)OC(c2ccco2)CN1C(=O)C(Cl)Cl (stereo not drawn) [compound 15]")
30
>>> observed_result("COC(=O)COC(c1ccccc1)c1ccccc1 [compound 20]")
35

Kindly consider the entry below.
[Q] Reported % Inhibition GFT for CC1COc2ccccc2N1C(=O)C(Cl)Cl (stereo not drawn) [compound 17] : what is it?
[A] 25

---

# System: Giant foxtail (Setaria fabergi)
# Procedure Summary: Example 23, Procedure II: Antidote Nos. 15 and 17-21 against Herbicide No. 1, 13 days after application
# Type: in vivo
# Reported Conditions: Table 23A, Herb. No. 1 0.56 Kg/Ha + antidote 2.24 Kg/ha
Measured Attribute: % Inhibition GFT (%)
Numbers only, in %.

Below are worked cases with known answers.
>>> observed_result("CCSC(=O)COC(c1ccccc1)c1ccccc1 [compound 21]")
35
>>> observed_result("COC(=O)COC(c1ccccc1)c1ccccc1 [compound 20]")
40
>>> observed_result("O=C(O)COC(c1ccccc1)c1ccccc1 [compound 19]")
50
>>> observed_result("CC1(C)OC(c2ccco2)CN1C(=O)C(Cl)Cl (stereo not drawn) [compound 15]")
65

Hey, can you go through the list below and give me % Inhibition GFT for every item?
1. CC1COc2ccccc2N1C(=O)C(Cl)Cl (stereo not drawn) [compound 17]
2. O=C(O)COC(c1ccccc1)c1ccccc1 [compound 18]

[A]
1: 60; 2: 65

---

# Tested on: velvetleaf (Abutilon theophrasti)
# Procedure Summary: Example 10, Procedure II: Herbicide No. 1 + propachlor (No. 5) with antidotes
# Type: in vivo
# Reported Conditions: Herbicide No.1 0.56 kg/ha + Herbicide No.5 4.48 kg/ha; antidote rate 8.96 kg/ha
Measured Attribute: % Injury VL (%)
Answers are plain numbers, in %.

Past entries and their recorded results:
>>> observed_result("O=C1OC(=O)c2cccc3cccc1c23 [compound 2]")
80
>>> observed_result("CC1(C(Cl)Cl)OCCO1 [compound 13]")
75
>>> observed_result("CC1(C)OC(c2ccco2)CN1C(=O)C(Cl)Cl (centres unmarked) [compound 15]")
75
>>> observed_result("C=CCN(CC=C)C(=O)C(Cl)Cl [compound 1]")
80

[Q] Consider the molecule shown here: O=C(C(Cl)Cl)N1CCOC12CCCCC2 [compound 7] What is its recorded % Injury VL?
[A] 80

---

# Tested on: Giant foxtail (Setaria fabergi)
# Procedure Summary: Example 24, Procedure II: Herbicide No. 1 + co-herbicides Nos. 4, 6, 7, 12 with Antidote Nos. 15 and 17-21
# Type: in vivo
# Reported Conditions: Herb. No. 1 0.28 Kg/ha + Co-Herb. No. 12 0.28 Kg/ha + antidote 2.24 Kg/ha
# Procedure: Containers were filled and compacted with a fumigated silt loam top soil to a depth of about 1.3 cm from the top of the container. […] A measured amount of herbicide dispersed or dissolved in acetone was applied to a measured quantity of soil. To this same quantity of soil treated with herbicide, there was added a measured amount of antidote dispersed or dissolved in acetone. […]
Assignment: determine reported % Inhibition GFT for the given compounds.
One number for each entry, in %.

>>> observed_result("O=C(O)COC(c1ccccc1)c1ccccc1 [compound 18]")
100
>>> observed_result("CC1(C)OC(c2ccco2)CN1C(=O)C(Cl)Cl (stereo not drawn)")
100
>>> observed_result("CC1COc2ccccc2N1C(=O)C(Cl)Cl (stereo not drawn)")
98

Could you tell me % Inhibition GFT for each of these compounds? They are listed below.
1. O=C(O)COC(c1ccccc1)c1ccccc1 [compound 19]
2. COC(=O)COC(c1ccccc1)c1ccccc1
3. CCSC(=O)COC(c1ccccc1)c1ccccc1

[A]
1. 100
2. 100
3. 100

---

Provide the recorded % Injury Corn for the entries that follow.
# System: corn
# Procedure Summary: Example 19, Procedure II: Herbicide No. 1 + ERADICANE EXTRA with added antidotes
# Format: in vivo
# Reported Conditions: Herbicide No.1 0.56 kg/ha + ERADICANE EXTRA 8.96 kg/ha; antidote 2.24 kg/ha

Solved cases below.
>>> observed_result("O=C1OC(=O)c2cccc3cccc1c23")
"20%"
>>> observed_result("CC1(C)OC(c2ccco2)CN1C(=O)C(Cl)Cl (centres unmarked)")
"20%"
>>> observed_result("CC1(C(Cl)Cl)OCCO1")
"25%"
>>> observed_result("O=C(C(Cl)Cl)N1CCOC12CCCCC2")
"15%"

[Q] # lookup: % Injury Corn of C=CCN(CC=C)C(=O)C(Cl)Cl
[A] 35%

---

I'd appreciate it if you could supply % Injury Corn values for the items below.
# Test system: corn
# Procedure Summary: Example 9, Procedure II: Herbicide No. 1 + pretilachlor (No. 13) with antidotes
# Type: in vivo
# Reported Conditions: Herbicide No.1 0.56 kg/ha + Herbicide No.13 2.24 kg/ha; antidote rate 2.24 kg/ha
One number for each entry, in %.

>>> observed_result("O=C(C(Cl)Cl)N1CCOC12CCCCC2")
30
>>> observed_result("CC1(C(Cl)Cl)OCCO1")
25
>>> observed_result("CC1(C)OC(c2ccco2)CN1C(=O)C(Cl)Cl (stereo not shown)")
15

In the following, a different compound is considered.
[Q] Report % Injury Corn for C=CCN(CC=C)C(=O)C(Cl)Cl please.
[A] 5
